In this section we review reported Antidiuretic values for a set of compounds.
- Species on record: Rattus norvegicus
- experiment-description: Compound was tested for antidiuretic activity in rats
- Assay type: ADME, organism-based, Urine
- conditions: in vivo
Numeric answer only, unit U/mg assumed.

Example cases with answers are listed next.
{"compound": "CC[C@H](C)[C@@H]1NC(=O)[C@H](Cc2ccc(O)cc2)NC(=O)[C@@H](N)CSSC[C@@H](C(=O)N2CCC[C@H]2C(=O)N[C@@H](CC(C)C)C(=O)NCC(N)=O)NC(=O)[C@H](CC(N)=O)NC(=O)[C@H](CCC(N)=O)NC1=O", "Antidiuretic, U/mg": 4}
{"compound": "NC(=O)CC[C@@H]1NC(=O)[C@H](Cc2ccccc2)NC(=O)[C@H](Cc2ccc(O)cc2)NC(=O)[C@@H](N)CSSC[C@@H](C(=O)N2CCC[C@H]2C(=O)N[C@@H](CCCN=C(N)N)C(=O)NCC(N)=O)NC(=O)[C@H](CC(N)=O)NC1=O (stereo in doubt; form 1) [VASOPRESSIN]", "Antidiuretic, U/mg": 323}

## Input Consider the compound NC(=O)CC[C@@H]1NC(=O)[C@H](Cc2ccccc2)NC(=O)[C@H](Cc2ccc(O)cc2)NC(=O)[C@@H](N)CSSC[C@@H](C(=O)N2CCC[C@H]2C(=O)N[C@@H](CCCN=C(N)N)C(=O)NCC(N)=O)NC(=O)[C@H](CC(N)=O)NC1=O (stereo in doubt; form 2) [VASOPRESSIN] and give its recorded Antidiuretic.
## Output 212
